# protocol_notes: in vitro
# measurement_parameters: human
Counter-ions that a name gives are not always drawn.

- compound: "Cc1c(O)cccc1C(=O)N[C@@H](CSc1ccccc1)[C@H](O)CN1C[C@H]2CCCC[C@H]2C[C@H]1C(=O)NC(C)(C)C [Nelfinavir, nelfinavir mesylate]"
  CC50 at 7 days: "> 1 µM"

---

# protocol_notes: MTS cytotoxicity in monocyte/macrophage cultures
# Type: cell-based
# measurement_parameters: human, fresh adherent monocyte/macrophage cultures, HIV-infected, macrophages, JR-CSF assay, MTS; read-out: TC50

- mol_smiles: "COc1cc2c(cc1Cc1cccc(Cl)c1F)c(=O)c(C(=O)O)cn2[C@H](CO)C(C)C"
  CC50 at 7 days: "> 100 nM"

---

# protocol_notes: in vitro
# measurement_parameters: human
Counter-ions that a name gives are not always drawn.

- molecule: "Cc1c(O)cccc1C(=O)N[C@@H](CSc1ccccc1)[C@H](O)CN1C[C@H]2CCCC[C@H]2C[C@H]1C(=O)NC(C)(C)C [Nelfinavir, nelfinavir mesylate]"
  CC50: "> 1000 nM"

---

Recorded pIC50 by entry
# System: HIV-1 clinical isolates
# protocol_notes: microbe, parasite or virus in culture
# measurement_parameters: Human immunodeficiency virus 1, PBMC, HIV-1 UG/92/046 (subtype D/D, X4) in PBMCs
pIC50: −log10 of the molar value. Where a name gives a salt, the structure may show the parent alone.
quantity_kind: pIC50

- molecule: "COc1cc2c(cc1Cc1cccc(Cl)c1F)c(=O)c(C(=O)O)cn2[C@H](CO)C(C)C"
  quantity_kind: "pIC50"
  assay_value: 9.30
- molecule: "Cc1c(O)cccc1C(=O)N[C@@H](CSc1ccccc1)[C@H](O)CN1C[C@H]2CCCC[C@H]2C[C@H]1C(=O)NC(C)(C)C [Nelfinavir, nelfinavir mesylate]"
  quantity_kind: "pIC50"
  assay_value: 7.56
- molecule: "O=C1Nc2ccc(Cl)cc2[C@@](C#CC2CC2)(C(F)(F)F)O1"
  quantity_kind: "pIC50"
  assay_value: 8.92

---

# System: human PBMCs
# protocol_notes: MTS staining for PBMC viability (cytotoxicity)
# measurement_parameters: read-out: TC50; PBMCs, BR/92/021 assay, MTS

- compound: "O=C1Nc2ccc(Cl)cc2[C@@](C#CC2CC2)(C(F)(F)F)O1 [Efavirenz, efavirenz]"
  CC50: "> 1000 nM"

---

# System: human PBMCs
# protocol_notes: MTS staining for PBMC viability (cytotoxicity)
# measurement_parameters: read-out: TC50; PBMCs, MDR 3761 assay, MTS
Where a name gives a salt, the structure may show the parent alone.

- compound: "Cc1c(O)cccc1C(=O)N[C@@H](CSc1ccccc1)[C@H](O)CN1C[C@H]2CCCC[C@H]2C[C@H]1C(=O)NC(C)(C)C [Nelfinavir, nelfinavir mesylate]"
  CC50: "> 1000 nM"

---

Recorded pIC50 by entry
# System: HIV-1 clinical isolates
# protocol_notes: microbe, parasite or virus in culture
# measurement_parameters: Human immunodeficiency virus 1, PBMC, HIV-1 BR/93/017 (subtype B/B, R5) in PBMCs
pIC50: −log10 of the molar value. Structures can show the parent of a compound that is named as a salt.
quantity_kind: pIC50

- compound: "O=C1Nc2ccc(Cl)cc2[C@@](C#CC2CC2)(C(F)(F)F)O1 [Efavirenz, efavirenz]"
  quantity_kind: "pIC50"
  assay_value: 9.24
- compound: "Cc1c(O)cccc1C(=O)N[C@@H](CSc1ccccc1)[C@H](O)CN1C[C@H]2CCCC[C@H]2C[C@H]1C(=O)NC(C)(C)C [Nelfinavir, nelfinavir mesylate]"
  quantity_kind: "pIC50"
  assay_value: 8.69
